All values here come from ChEMBL document CHEMBL1129077.

system-tested: Transient receptor potential cation channel subfamily V member 1 (Homo sapiens)
Sequence (Q8NER1 whole entry): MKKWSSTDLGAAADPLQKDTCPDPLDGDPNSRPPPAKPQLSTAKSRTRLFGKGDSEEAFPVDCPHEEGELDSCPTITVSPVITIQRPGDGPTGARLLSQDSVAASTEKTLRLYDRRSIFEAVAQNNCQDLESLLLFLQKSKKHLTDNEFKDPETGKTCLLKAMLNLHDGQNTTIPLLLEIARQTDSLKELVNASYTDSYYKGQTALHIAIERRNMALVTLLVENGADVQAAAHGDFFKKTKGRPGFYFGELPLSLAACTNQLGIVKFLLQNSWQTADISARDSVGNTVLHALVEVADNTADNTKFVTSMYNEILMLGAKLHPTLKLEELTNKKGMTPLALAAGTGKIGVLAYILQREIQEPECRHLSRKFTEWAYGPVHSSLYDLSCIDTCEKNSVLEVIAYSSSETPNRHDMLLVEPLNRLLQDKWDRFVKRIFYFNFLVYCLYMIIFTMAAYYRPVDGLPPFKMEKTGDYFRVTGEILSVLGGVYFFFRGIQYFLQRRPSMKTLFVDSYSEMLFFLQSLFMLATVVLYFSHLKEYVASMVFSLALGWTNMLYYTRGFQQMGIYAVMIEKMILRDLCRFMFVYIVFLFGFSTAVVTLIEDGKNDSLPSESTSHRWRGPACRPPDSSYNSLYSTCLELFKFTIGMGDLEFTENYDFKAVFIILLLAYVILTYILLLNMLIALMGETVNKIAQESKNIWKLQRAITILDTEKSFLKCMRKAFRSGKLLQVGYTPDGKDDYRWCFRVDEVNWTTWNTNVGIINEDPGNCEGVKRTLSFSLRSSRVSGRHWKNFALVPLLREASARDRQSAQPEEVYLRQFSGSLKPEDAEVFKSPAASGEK
experiment-summary: Inhibitory constant for RTX binding to human spinal cord
Assay type: functional, tissue-based
assay-endpoint: Ki (nM)
Dear colleague, please return just the value in nM, with no unit written.

Query: Please give the measured Ki for this compound: COc1cc(CC(=O)OCC2=C[C@H]3[C@@H]4C(C)(C)[C@]4(OC(C)=O)[C@H](OC(=O)Cc4ccccc4)[C@@H](C)[C@]3(O)[C@@H]3C=C(C)C(=O)[C@@]3(O)C2)ccc1O
Response: 0.45

###

system-tested: Transient receptor potential cation channel subfamily V member 1 (Rattus norvegicus)
experiment-summary: Inhibition of [3H]- RTX binding to vanilloid receptor of rat urinary bladder
Type: functional
assay-endpoint: pKi
Scale for pKi: -log10 of concentration given in mol/L; no unit attached.

Query: Please give the measured pKi for this compound: COc1cc(CC(=O)OCC2=C[C@H]3[C@@H]4C(C)(C)[C@]4(OC(C)=O)[C@H](OC(=O)Cc4ccccc4)[C@@H](C)[C@]3(O)[C@@H]3C=C(C)C(=O)[C@@]3(O)C2)ccc1O
Response: 5.70

###

system-tested: Transient receptor potential cation channel subfamily V member 1 (Homo sapiens)
experiment-summary: Effect on cooperativity of Resiniferatoxin (RTX) binding (Hill coefficient)
Type: functional
Below, each entry is listed with its recorded Hill coefficient.

// solved cases for Hill coefficient follow
- line-notation: "COc1cc(CC(=O)OCC2=C[C@H]3[C@@H]4C(C)(C)[C@]4(OC(C)=O)[C@H](OC(=O)c4ccccc4)[C@@H](C)[C@]3(O)[C@@H]3C=C(C)C(=O)[C@@]3(O)C2)ccc1O"
  Hill coefficient: 1.7
- line-notation: "COc1cc(CC(=O)OCC2=C[C@H]3[C@@H]4C(C)(C)[C@]4(OC(C)=O)[C@H](OC(=O)c4ccc(N=[N+]=[N-])cc4)[C@@H](C)[C@]3(O)[C@@H]3C=C(C)C(=O)[C@@]3(O)C2)ccc1O"
  Hill coefficient: 1.5

Shift focus to the following entry.
Query: Please give the measured Hill coefficient for this molecule: COc1cc(CC(=O)OCC2=C[C@H]3[C@@H]4C(C)(C)[C@]4(OC(C)=O)[C@H](OC(=O)Cc4ccccc4)[C@@H](C)[C@]3(O)[C@@H]3C=C(C)C(=O)[C@@]3(O)C2)ccc1OC(C)=O
Response: 1

###

system-tested: UniProtKB O35433
experiment-summary: Inhibitory constant for RTX binding to rat spinal cord
Type: functional
assay-endpoint: pKi
Scale for pKi: -log10 of concentration given in mol/L; no unit attached.

Query: Please give the measured pKi for this compound: COc1cc(CC(=O)OCC2=C[C@H]3[C@@H]4C(C)(C)[C@]4(OC(C)=O)[C@H](OC(=O)Cc4ccccc4)[C@@H](C)[C@]3(O)[C@@H]3C=C(C)C(=O)[C@@]3(O)C2)ccc1O
Response: 10.27

###

system-tested: Transient receptor potential cation channel subfamily V member 1 (Homo sapiens)
experiment-summary: Effect on cooperativity of Resiniferatoxin (RTX) binding (Hill coefficient)
Type: functional
assay-endpoint: Hill coefficient
Respond numerically, and do not add a unit to the figure.

Query: Please give the measured Hill coefficient for this molecule: COc1cc(CC(=O)OCC2=C[C@H]3[C@@H]4C(C)(C)[C@]4(OC(=O)Cc4ccccc4)[C@H](OC(=O)Cc4ccccc4)[C@@H](C)[C@]3(O)[C@@H]3C=C(C)C(=O)[C@@]3(O)C2)ccc1O
Response: 1.3

Query: Please give the measured Hill coefficient for this molecule: COc1cc(CC(=O)OCC2=C[C@H]3[C@@H]4C(C)(C)[C@]4(OC(C)=O)[C@H](OC(=O)C4CCCCC4)[C@@H](C)[C@]3(O)[C@@H]3C=C(C)C(=O)[C@@]3(O)C2)ccc1O
Response: 1

Query: Please give the measured Hill coefficient for this molecule: COc1cc(CC(=O)OCC2=C[C@H]3[C@@H]4C(C)(C)[C@]4(OC(C)=O)[C@H](OC(=O)Cc4ccccc4)[C@@H](C)[C@]3(O)[C@@H]3C=C(C)C(=O)[C@@]3(O)C2)ccc1O
Response: 1.1

###

Below, each entry is listed with its recorded pKi.
system-tested: Transient receptor potential cation channel subfamily V member 1 (Rattus norvegicus, UniProt O35433)
Sequence (O35433 whole entry): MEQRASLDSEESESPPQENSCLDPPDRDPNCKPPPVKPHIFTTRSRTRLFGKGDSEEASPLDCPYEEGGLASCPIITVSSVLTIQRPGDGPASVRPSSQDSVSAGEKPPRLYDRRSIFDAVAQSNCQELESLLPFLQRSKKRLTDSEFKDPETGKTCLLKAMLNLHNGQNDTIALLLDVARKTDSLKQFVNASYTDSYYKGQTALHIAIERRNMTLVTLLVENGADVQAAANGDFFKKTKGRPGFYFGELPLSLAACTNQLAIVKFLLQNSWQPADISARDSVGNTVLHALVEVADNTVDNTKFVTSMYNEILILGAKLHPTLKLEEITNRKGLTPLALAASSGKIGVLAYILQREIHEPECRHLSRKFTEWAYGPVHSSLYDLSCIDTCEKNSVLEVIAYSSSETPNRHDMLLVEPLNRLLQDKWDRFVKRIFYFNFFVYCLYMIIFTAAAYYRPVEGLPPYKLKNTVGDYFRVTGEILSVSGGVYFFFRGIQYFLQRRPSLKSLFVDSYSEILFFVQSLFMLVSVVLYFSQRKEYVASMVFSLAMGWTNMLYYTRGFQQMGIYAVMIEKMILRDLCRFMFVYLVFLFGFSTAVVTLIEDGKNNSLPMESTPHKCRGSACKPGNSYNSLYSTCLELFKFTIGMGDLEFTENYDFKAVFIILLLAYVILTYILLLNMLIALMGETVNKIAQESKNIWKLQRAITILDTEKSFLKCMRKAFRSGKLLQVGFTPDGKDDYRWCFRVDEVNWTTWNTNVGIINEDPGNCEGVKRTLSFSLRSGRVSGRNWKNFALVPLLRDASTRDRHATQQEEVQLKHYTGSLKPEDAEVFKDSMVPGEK
experiment-summary: Displacement of [3H]RTX from Vanilloid receptor in Rat spinal cord membranes
Format: cell membranes, Membrane
Scale for pKi: -log10 of concentration given in mol/L; no unit attached.

// solved cases for pKi follow
- compound: "C=C(C)[C@]12C[C@@H](C)[C@@]34O[C@](Cc5ccccc5)(O[C@@H]1[C@@H]3C=C(COC(=O)Cc1ccc(O)c(OC)c1)C[C@]1(O)C(=O)C(C)=CC41)O2 (single isomer, unassigned)"
  pKi: 10.70
- compound: "COc1cc(CC(=O)OCC2=C[C@H]3[C@@H]4C(C)(C)[C@]4(OC(C)=O)[C@H](OC(=O)Cc4ccccc4)[C@@H](C)[C@]3(O)[C@@H]3C=C(C)C(=O)[C@@]3(O)C2)ccc1OC(C)=O"
  pKi: 5.77
- compound: "COc1cc(CC(=O)OCC2=C[C@H]3[C@@H]4C(C)(C)[C@]4(OC(C)=O)[C@H](OC(=O)c4ccc(N=[N+]=[N-])cc4)[C@@H](C)[C@]3(O)[C@@H]3C=C(C)C(=O)[C@@]3(O)C2)ccc1O"
  pKi: 6.70
- compound: "COc1cc(CC(=O)OCC2=C[C@H]3[C@@H]4C(C)(C)[C@]4(OC(=O)Cc4ccccc4)[C@H](OC(=O)Cc4ccccc4)[C@@H](C)[C@]3(O)[C@@H]3C=C(C)C(=O)[C@@]3(O)C2)ccc1O"
  pKi: 6.52
- compound: "Oc1cc2c(cc1O)CN(C(=S)NCCc1ccc(Cl)cc1)CCC2 [CAPSAZEPINE]"
  pKi: 5.92

Query: Please give the measured pKi for this compound: COc1cc(CC(=O)OCC2=C[C@H]3[C@@H]4C(C)(C)[C@]4(OC(C)=O)[C@H](OC(=O)c4ccccc4)[C@@H](C)[C@]3(O)[C@@H]3C=C(C)C(=O)[C@@]3(O)C2)ccc1O
Response: 6.40

Query: Please give the measured pKi for this compound: COc1cc(CC(=O)OCC2=C[C@H]3[C@@H]4C(C)(C)[C@]4(OC(C)=O)[C@H](OC(=O)CC4CCCCC4)[C@@H](C)[C@]3(O)[C@@H]3C=C(C)C(=O)[C@@]3(O)C2)ccc1O
Response: 6.40

Query: Please give the measured pKi for this compound: COc1cc(CC(=O)OCC2=C[C@H]3[C@@H]4C(C)(C)[C@]4(OC(C)=O)[C@H](OC(=O)C4CCCCC4)[C@@H](C)[C@]3(O)[C@@H]3C=C(C)C(=O)[C@@]3(O)C2)ccc1O
Response: 5.66

Query: Please give the measured pKi for this compound: COc1cc(CC(=O)OCC2=C[C@H]3[C@@H]4C(C)(C)[C@]4(OC(C)=O)[C@H](OC(=O)Cc4ccc(N=[N+]=[N-])cc4)[C@@H](C)[C@]3(O)[C@@H]3C=C(C)C(=O)[C@@]3(O)C2)ccc1O
Response: 6.70

Query: Please give the measured pKi for this compound: COc1cc(CC(=O)OCC2=C[C@H]3[C@@H]4C(C)(C)[C@]4(OC(=O)Cc4ccccc4)C(=O)[C@@H](C)[C@]3(O)[C@@H]3C=C(C)C(=O)[C@@]3(O)C2)ccc1O
Response: 5.89
